- Tested on: SN12C
- Run description: AUC of dose-response viability curve, drug + dasatinib, normalised to DMSO (arbitrary (AUC of normalised viability)); higher = less growth inhibition
- Condition context: treatment: drug + dasatinib (fixed dose, not stated); 5 days
Measured AUC of dose-response viability curve values are reported for all entries that follow.
Property: AUC of dose-response viability curve

{"columns": ["Molecule", "Target system", "Assay value"],
 "data": [
  ["Cl.Cl.NC1(c2ccc(-c3nc4ccn5c(=O)[nH]nc5c4cc3-c3ccccc3)cc2)CCC1 [MK-2206 dihydrochloride] + Cc1nc(Nc2ncc(C(=O)Nc3c(C)cccc3Cl)s2)cc(N2CCN(CCO)CC2)n1 [dasatinib]", "SN12C", 2.18],
  ["Cc1cc2c(F)c(Oc3ncnn4cc(OC[C@@H](C)OC(=O)[C@H](C)N)c(C)c34)ccc2[nH]1 + Cc1nc(Nc2ncc(C(=O)Nc3c(C)cccc3Cl)s2)cc(N2CCN(CCO)CC2)n1 [dasatinib]", "SN12C", 2.47],
  ["Cn1cc(C2=C(c3cn(C4CCN(Cc5ccccn5)CC4)c4ccccc34)C(=O)NC2=O)c2ccccc21 + Cc1nc(Nc2ncc(C(=O)Nc3c(C)cccc3Cl)s2)cc(N2CCN(CCO)CC2)n1 [dasatinib]", "SN12C", 2.38],
  ["CO[C@H]1C[C@@H]2CC[C@@H](C)[C@@](O)(O2)C(=O)C(=O)N2CCCC[C@H]2C(=O)O[C@H]([C@H](C)C[C@@H]2CC[C@@H](OCCO)[C@H](OC)C2)CC(=O)[C@H](C)/C=C(\\C)[C@@H](O)[C@@H](OC)C(=O)[C@H](C)C[C@H](C)/C=C/C=C/C=C/1C [Everolimus (RAD001)] + Cc1nc(Nc2ncc(C(=O)Nc3c(C)cccc3Cl)s2)cc(N2CCN(CCO)CC2)n1 [dasatinib]", "SN12C", 1.93]
]}

====

Measured GI50 of drug values are reported for all entries that follow.
- Tested on: 786-O
- Run description: GI50 of drug in presence of dasatinib; higher = less potent
- Condition context: treatment: drug + dasatinib (fixed dose, not stated); 5 days
Property: GI50 of drug

{"columns": ["Molecule", "Property", "Assay value"],
 "data": [
  ["CN[C@@H]1C[C@H]2O[C@@](C)([C@@H]1OC)n1c3ccccc3c3c4c(c5c6ccccc6n2c5c31)C(=O)NC4 [Staurosporine] + Cc1nc(Nc2ncc(C(=O)Nc3c(C)cccc3Cl)s2)cc(N2CCN(CCO)CC2)n1", "GI50 of drug", "< 3 nM"],
  ["C[C@@H]1COC(Nc2ccc3ncnc(Nc4ccc(OCc5nccs5)c(Cl)c4)c3c2)=N1 + Cc1nc(Nc2ncc(C(=O)Nc3c(C)cccc3Cl)s2)cc(N2CCN(CCO)CC2)n1", "GI50 of drug", "> 10000 nM"],
  ["CCN(CC)CCCCNc1ncc2cc(-c3cc(OC)cc(OC)c3)c(NC(=O)NC(C)(C)C)nc2n1 + Cc1nc(Nc2ncc(C(=O)Nc3c(C)cccc3Cl)s2)cc(N2CCN(CCO)CC2)n1", "GI50 of drug", "1210 nM"],
  ["C[C@@H]1CCN(C(=O)CC#N)C[C@@H]1N(C)c1ncnc2[nH]ccc12 + Cc1nc(Nc2ncc(C(=O)Nc3c(C)cccc3Cl)s2)cc(N2CCN(CCO)CC2)n1", "GI50 of drug", "> 10000 nM"]
]}

====

- Tested on: TK-10
- Run description: minimum viability across doses, drug + dasatinib, relative to DMSO (fraction); higher = less growth inhibition
- Condition context: treatment: drug + dasatinib (fixed dose, not stated); 5 days
# 1.0 = minimum viability across doses below 0.3 (exclusive); 0.0 = minimum viability across doses at/above 0.3

{"columns": ["Compound", "Target system", "Assigned class"],
 "data": [
  ["O=c1cc(N2CCOCC2)oc2c(-c3cccc4c3sc3ccccc34)cccc12 + Cc1nc(Nc2ncc(C(=O)Nc3c(C)cccc3Cl)s2)cc(N2CCN(CCO)CC2)n1 [dasatinib]", "TK-10", 1.0],
  ["CC(C)(C)c1cnc(CSc2cnc(NC(=O)C3CCNCC3)s2)o1 + Cc1nc(Nc2ncc(C(=O)Nc3c(C)cccc3Cl)s2)cc(N2CCN(CCO)CC2)n1 [dasatinib]", "TK-10", 1.0],
  ["CCn1c(N)c(C(=O)NC)c(=O)c2ccc(C#C[C@@](C)(O)COC)nc21 + Cc1nc(Nc2ncc(C(=O)Nc3c(C)cccc3Cl)s2)cc(N2CCN(CCO)CC2)n1 [dasatinib]", "TK-10", 0.0],
  ["CN1C(=O)C(Cc2c[nH]c3ccccc23)NC1=S (stereo unspecified) [Necrostatin-1] + Cc1nc(Nc2ncc(C(=O)Nc3c(C)cccc3Cl)s2)cc(N2CCN(CCO)CC2)n1 [dasatinib]", "TK-10", 0.0],
  ["CC(=O)Nc1nc(C)c(-c2ccc(Cl)c(S(=O)(=O)NCCO)c2)s1 [PIK-93] + Cc1nc(Nc2ncc(C(=O)Nc3c(C)cccc3Cl)s2)cc(N2CCN(CCO)CC2)n1 [dasatinib]", "TK-10", 1.0],
  ["Nc1nc(Nc2ccc(S(N)(=O)=O)cc2)nn1C(=O)c1c(F)cccc1F + Cc1nc(Nc2ncc(C(=O)Nc3c(C)cccc3Cl)s2)cc(N2CCN(CCO)CC2)n1 [dasatinib]", "TK-10", 0.0]
]}

====

Measured GI50, drug alone values are reported for all entries that follow.
- Tested on: ACHN
- Run description: GI50, drug alone; higher = less potent
- Condition context: treatment: drug alone; 5 days
Property: GI50, drug alone

{"columns": ["Compound", "Target system", "Assay value"],
 "data": [
  ["CN1CCN(c2ccc([N+](=O)[O-])c3no[n+]([O-])c23)CC1", "ACHN", "> 10 µM"],
  ["COc1cc2nccc(Oc3ccc(NC(=O)NC4CC4)c(Cl)c3)c2cc1C(N)=O [E7080 (Lenvatinib)]", "ACHN", "> 10 µM"],
  ["Cn1cc(C2=C(c3ccc(Cl)cc3Cl)C(=O)NC2=O)c2ccccc21", "ACHN", "> 10 µM"]
]}

====

- Tested on: SN12C
- Run description: minimum viability across doses, drug alone, relative to DMSO (fraction); higher = less growth inhibition
- Condition context: treatment: drug alone; 5 days

{"columns": ["Compound", "Target system", "minimum viability across doses"],
 "data": [
  ["COc1ccc2cc(-c3[nH]c(-c4ccc(S(C)=O)cc4)nc3-c3ccncc3)ccc2c1 (centres undefined) [Tie2 kinase inhibitor]", "SN12C", 0.755],
  ["CS(=O)c1ccc(-c2nc(-c3ccc(F)cc3)c(-c3ccncc3)[nH]2)cc1 (centres undefined)", "SN12C", 0.84],
  ["COc1cc(Nc2ncc(F)c(Nc3ccc4c(n3)N(COP(=O)(O)O)C(=O)C(C)(C)O4)n2)cc(OC)c1OC [R788 (Fostamatinib)]", "SN12C", 0.287],
  ["O=C(NOCC(O)CO)c1cc(Br)c(F)c(F)c1Nc1ccc(I)cc1F (centres undefined)", "SN12C", 0.602]
]}

====

- Tested on: CAKI-1
- Run description: minimum viability across doses, drug alone, relative to DMSO (fraction); higher = less growth inhibition
- Condition context: treatment: drug alone; 5 days
# 1.0 = minimum viability across doses below 0.3 (exclusive); 0.0 = minimum viability across doses at/above 0.3

{"columns": ["Compound", "Assigned class"],
 "data": [
  ["CCC[C@H](NC(=O)/C(C#N)=C/c1cccc(Br)n1)c1ccccc1", 1.0],
  ["O=C(Nc1ccc(OC(F)(F)F)cc1)c1sccc1NCc1ccnc2ccccc12", 1.0],
  ["Cl.Cl.Clc1ccc(Nc2nnc(Cc3ccncc3)c3ccccc23)cc1 [Vatalanib dihydrochloride (PTK787)]", 0.0],
  ["CC(C)NC[C@@H](C(=O)N1CCN(c2ncnc3c2[C@H](C)C[C@H]3O)CC1)c1ccc(Cl)cc1", 0.0],
  ["CCS(=O)(=O)c1cccc(-c2cc(C(=O)NC3CCN(C)CC3)c(C)c3[nH]c4ncc(C)cc4c23)c1", 1.0],
  ["O=c1sn(-c2cccc3ccccc23)c(=O)n1Cc1ccccc1", 0.0],
  ["Cc1ccc(NC(=O)c2cccc(C(C)(C)C#N)c2)cc1Nc1ccc2ncn(C)c(=O)c2c1", 1.0],
  ["CC[C@@H]1C(=O)N(C)c2cnc(Nc3ccc(C(=O)NC4CCN(C)CC4)cc3OC)nc2N1C1CCCC1", 1.0],
  ["CNC(=O)c1ccccc1Sc1ccc2c(/C=C/c3ccccn3)n[nH]c2c1", 0.0],
  ["CCn1c(-c2nonc2N)nc2c(C#CC(C)(C)O)ncc(OC[C@H]3CCCNC3)c21", 0.0],
  ["CNC(=O)Nc1ccc(-c2nc(N3CC4CCC(C3)O4)c3cnn(C4CCC5(CC4)OCCO5)c3n2)cc1", 1.0],
  ["COc1cc2nccc(Oc3ccc(NC(=O)NC4CC4)c(Cl)c3)c2cc1C(N)=O", 1.0]
]}

The origin of these recorded values is the supplement of paper PMC8149375.
